Study Target: T1, recombinant human DLL4 (Cat# 1506-D4/CF, R&D Systems) (human, UniProt Q9NR61 27-529)
T1 construct: Bought protein; also called hDLL4; rHuman DLL4
Assay Explanation: ELISA, DLL4 coated, Fab 100 nM
Parameter Measured: ELISA absorbance at 450 nm (A450)
// note: answer is a bare numeric in A450

Entry Fab VH1-46_IGHD6-6*01_IGHJ1*01 S102A/S103P/S104F/H111F & L6_IGKJ1*01 S28N/S30D/S31H N53H (Fab, V domains shown, Fab made in E. coli: VH on CH1 with His6 and Flag tags (Plasmid A), VL on kappa CL (Plasmid C); also called H: APFF & L: NDH N53H) VH: QVQLVQSGAEVKKPGASVKVSCKASGYTFTSYYMHWVRQAPGQGLEWMGIINPSGGSTSYAQKFQGRVTMTRDTSTSTVYMELSSLRSEDTAVYYCAREEYAPFSAEYFQFWGQGTLVTVSS VL: EIVLTQSPATLSLSPGERATLSCRASQNVDHYLAWYQQKPGQAPRLLIYDASHRATGIPARFSGSGSGTDFTLTISSLEPEDFAVYYCQQRSNWPPWTFGQGTKVEIKR , ELISA absorbance at 450 nm reported as 0.608
